Value source: ChEMBL document CHEMBL4138124

system: MCF7; test: Growth inhibition of human MCF7 cells after 48 hrs by SRB assay; format: functional; details: MCF7, 48 h
Square brackets hold non-standard residues; d marks the D form. Peptide text beside a SMILES is read from it. * marks the point of attachment. Dolaproine = CO[C@@H]([C@@H]1CCCN1)[C@@H](C)C(=O)O; Dil = CC[C@H](C)[C@H](NC)[C@@H](CC(=O)O)OC; NMeV = CN[C@H](C(=O)O)C(C)C; X2 = c1cc(CCN*)c2ccncc2c1; X3 = c1cc2ccc(CCN*)cc2cn1
experimental-readout: GI50 (nM)

- CC[C@H](C)[C@@H]([C@@H](CC(=O)N1CCC[C@H]1[C@H](OC)[C@@H](C)C(=O)NCCc1cccc2cnccc12)OC)N(C)C(=O)[C@@H](NC(=O)[C@H](C(C)C)N(C)C)C(C)C: 0.279
- CC[C@H](C)[C@@H]([C@@H](CC(=O)N1CCC[C@H]1[C@H](OC)[C@@H](C)C(=O)NCCc1ccc2ccncc2c1)OC)N(C)C(=O)[C@@H](NC(=O)[C@@H](NC)C(C)C)C(C)C (H-[NMeV]V[Dil][Dolaproine]-X3): 0.149
- CC[C@H](C)[C@@H]([C@@H](CC(=O)N1CCC[C@H]1[C@H](OC)[C@@H](C)C(=O)NCCc1cccc2ccncc12)OC)N(C)C(=O)[C@@H](NC(=O)[C@H](C(C)C)N(C)C)C(C)C: 0.133

a = CC[C@H](C)[C@@H]([C@@H](CC(=O)N1CCC[C@H]1[C@H](OC)[C@@H](C)C(=O)NCCc1cccc2cnccc12)OC)N(C)C(=O)[C@@H](NC(=O)[C@@H](NC)C(C)C)C(C)C (H-[NMeV]V[Dil][Dolaproine]-X2)
b = CC[C@H](C)[C@@H]([C@@H](CC(=O)N1CCC[C@H]1[C@H](OC)[C@@H](C)C(=O)NCCc1ccc2ccncc2c1)OC)N(C)C(=O)[C@@H](NC(=O)[C@H](C(C)C)N(C)C)C(C)C
Exercise: Lower value for measured GI50? Options: a , b Could you answer with the label of the item you picked?
Solution: a

----------
system: MCF7; assay: Growth inhibition of human MCF7 cells after 48 hrs by SRB assay; type: functional; settings: MCF7, 48 h
Numbered stars: 1 amine (or outer) side, 2 acyl side, 3 side chain; on linkers, the order of the positions; unused ones are H or OH. Square brackets hold non-standard residues; d marks the D form. Peptide text beside a SMILES is read from it. * marks the point of attachment. Dolaproine = CO[C@@H]([C@@H]1CCCN1)[C@@H](C)C(=O)O; Hexanoyl(6-maleimido) = O=C1C=CC(=O)N1CCCCCC(=O)*; Dil = CC[C@H](C)[C@H](NC)[C@@H](CC(=O)O)OC; PABC = O=C(OCc1ccc(N[*:1])cc1)[*:2]; Cit = NC(=O)NCCC[C@H](N)C(=O)O; NMeV = CN[C@H](C(=O)O)C(C)C; X1 = c1cc(CCN*)c2cnccc2c1; X2 = c1cc(CCN*)c2ccncc2c1; X3 = c1cc2ccc(CCN*)cc2cn1
Listed here: items and their measured GI50.
# unit: nM | format: bare number

• CC[C@H](C)[C@@H]([C@@H](CC(=O)N1CCC[C@H]1[C@H](OC)[C@@H](C)C(=O)NCCc1cccc2ccncc12)OC)N(C)C(=O)[C@@H](NC(=O)[C@@H](NC)C(C)C)C(C)C (H-[NMeV]V[Dil][Dolaproine]-X1) = 0.271

Exercise: What value of measured GI50 is listed for CC[C@H](C)[C@@H]([C@@H](CC(=O)N1CCC[C@H]1[C@H](OC)[C@@H](C)C(=O)NCCc1cccc2ccncc12)OC)N(C)C(=O)[C@@H](NC(=O)[C@H](C(C)C)N(C)C(=O)OCc1ccc(NC(=O)[C@H](CCCNC(N)=O)NC(=O)[C@@H](NC(=O)CCCCCN2C(=O)C=CC2=O)C(C)C)cc1)C(C)C ({Hexanoyl(6-maleimido)}-V[Cit][PABC][NMeV]V[Dil][Dolaproine]-X1) ?
Solution: 22.4

Exercise: Thanks! And CC[C@H](C)[C@@H]([C@@H](CC(=O)N1CCC[C@H]1[C@H](OC)[C@@H](C)C(=O)NCCc1ccc2ccncc2c1)OC)N(C)C(=O)[C@@H](NC(=O)[C@H](C(C)C)N(C)C(=O)OCc1ccc(NC(=O)[C@H](CCCNC(N)=O)NC(=O)[C@@H](NC(=O)CCCCCN2C(=O)C=CC2=O)C(C)C)cc1)C(C)C ({Hexanoyl(6-maleimido)}-V[Cit][PABC][NMeV]V[Dil][Dolaproine]-X3) ?
Solution: 18

Exercise: Check CC[C@H](C)[C@@H]([C@@H](CC(=O)N1CCC[C@H]1[C@H](OC)[C@@H](C)C(=O)NCCc1cccc2cnccc12)OC)N(C)C(=O)[C@@H](NC(=O)[C@H](C(C)C)N(C)C(=O)OCc1ccc(NC(=O)[C@H](CCCNC(N)=O)NC(=O)[C@@H](NC(=O)CCCCCN2C(=O)C=CC2=O)C(C)C)cc1)C(C)C ({Hexanoyl(6-maleimido)}-V[Cit][PABC][NMeV]V[Dil][Dolaproine]-X2) too.
Solution: 21.7
